Hi there, I'd appreciate the recorded TGI for every entry that follows.
System: SK-OV-3 ovarian
ASSAY REMARKS: NCI tumour cell line growth inhibition, 48 h

Completed entries (count: 3):
O=C(N/N=C/c1ccc(-c2ccc(O)cc2)s1)c1[nH]c2ccc(Br)cc2c1-c1ccccc1 : 27.8 µM
O=C1C=CC(=CC=C2N(Cc3ccc4ccccc4c3)c3ccccc3N2Cc2ccc3ccccc3c2)C=C1 : 5.26 µM
N#C/C(=C1/C(=O)Nc2ccccc21)c1nnc(NC(=O)c2ccc(-n3c(=O)[nH]c4ccccc4c3=O)cc2)s1 : > 100 µM

Lab book: TGI of CNCc1cccc2c1OCCCCCC[C@@](C)(O)CC1(CC1)S(=O)(=O)c1ccc(cc1)-c1cnc(N)c(n1)C(=O)N2 noted as 19.4 µM
